Test system: RAW264.7
Assay: Antiinflammatory activity against mouse RAW264.7 cells assessed as inhibition of LPS-induced nitric oxide production measured after 24 hrs
Format: functional, cell-based
Settings: RAW264.7, 24 h
ENDPOINT_LABEL: IC50 (µM)

[[record]]
chemical_smiles = "CN1CCN(CC(=O)OCc2cc(O)c3c(c2)C(=O)c2cccc(O)c2C3=O)CC1"
tgt = "RAW264.7"
unit_label = "µM"
measured_value = 3.15

